- TEST SYSTEM: T1, HaloTag-ATRX ADD domain (163-292)
- T1 chain: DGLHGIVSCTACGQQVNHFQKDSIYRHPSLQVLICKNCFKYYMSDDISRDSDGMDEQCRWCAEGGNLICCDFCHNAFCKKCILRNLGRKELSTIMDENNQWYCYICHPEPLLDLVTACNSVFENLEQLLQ
- TEST: peptide microarray binding signal (635 nm), min-max normalized on array (fraction of array maximum); higher = stronger binding
- PROTOCOL CONDITIONS: peptide region: Unmod H2A variant; binder concentration: 500 nM
Provide the reported peptide microarray binding signal of each item.
Respond using a number only.

Inquiry: Dear colleague, please send me the reported peptide microarray binding signal for RNDEELNKLLGRV [Unmod H2A variant R N D E E L N K L L G R V] when you can.
Reply text: 0.00157

Inquiry: Dear colleague, please send me the reported peptide microarray binding signal for GNAARDNKKTRII [Unmod H2A variant G N A A R D N K K T R I I] when you can.
Reply text: 0.0214

Inquiry: Dear colleague, please send me the reported peptide microarray binding signal for DNKKTRIIPRHLQ [Unmod H2A variant D N K K T R I I P R H L Q] when you can.
Reply text: 0.0112

Inquiry: Dear colleague, please send me the reported peptide microarray binding signal for LAAVLEYLTAEIL [Unmod H2A variant L A A V L E Y L T A E I L] when you can.
Reply text: 0.00462

Inquiry: Dear colleague, please send me the reported peptide microarray binding signal for GVLPNIQAVLLPK [Unmod H2A variant G V L P N I Q A V L L P K] when you can.
Reply text: 0.0254

Inquiry: Dear colleague, please send me the reported peptide microarray binding signal for RAKAKSRSSRAGL [Unmod H2A variant R A K A K S R S S R A G L] when you can.
Reply text: 0.0133

Inquiry: Dear colleague, please send me the reported peptide microarray binding signal for KGNYAERVGAGAP [Unmod H2A variant K G N Y A E R V G A G A P] when you can.
Reply text: 0.0165

Inquiry: Dear colleague, please send me the reported peptide microarray binding signal for RAKSKSRSSRAGL [Unmod H2A variant R A K S K S R S S R A G L] when you can.
Reply text: 0.00576

Inquiry: Dear colleague, please send me the reported peptide microarray binding signal for GAGAPVYMAAVLE [Unmod H2A variant G A G A P V Y M A A V L E] when you can.
Reply text: 0.0173

Inquiry: Dear colleague, please send me the reported peptide microarray binding signal for RNDEELNKLLGGV [Unmod H2A variant R N D E E L N K L L G G V] when you can.
Reply text: 0.0164

Inquiry: Dear colleague, please send me the reported peptide microarray binding signal for QGGKARAKAKSRS [Unmod H2A variant Q G G K A R A K A K S R S] when you can.
Reply text: 0.0168

Inquiry: Dear colleague, please send me the reported peptide microarray binding signal for KGNYAERIGAGAP [Unmod H2A variant K G N Y A E R I G A G A P] when you can.
Reply text: 0.0994

Inquiry: Dear colleague, please send me the reported peptide microarray binding signal for GAGAPVYLAAVLE [Unmod H2A variant G A G A P V Y L A A V L E] when you can.
Reply text: 0.00505

Inquiry: Dear colleague, please send me the reported peptide microarray binding signal for GNASRDNKKTRII [Unmod H2A variant G N A S R D N K K T R I I] when you can.
Reply text: 0.00895

Inquiry: Dear colleague, please send me the reported peptide microarray binding signal for YLTAEILELAGNA [Unmod H2A variant Y L T A E I L E L A G N A] when you can.
Reply text: 0.00443

Inquiry: Dear colleague, please send me the reported peptide microarray binding signal for ILELAGNASRDNK [Unmod H2A variant I L E L A G N A S R D N K] when you can.
Reply text: 0.0403
